Test system: L1210 leukemia ip in BDF1 mice, survival T/C
Experiment: NCI In Vivo Anticancer Drug Screen. Data for tumor model L1210 Leukemia (intraperitoneal) in B6D2F1 (BDF1) mice
Details: endpoint: mean survival time; dose: 20.0 mg/kg/injection; schedule: Q04DX003 (ip); vehicle: Klucel (hydroxypropylcellulose) (HPC); higher = longer survival
Description: The antitumor activity of compounds was measured in mice bearing transplantable tumors. Survival or tumor size were measured and the results are expressed as the measurement made in the treated group (T) divided by the measurement made in the vehicle treated control group (C). The tumor model used in this assay is L1210 Leukemia (intraperitoneal) in B6D2F1 (BDF1) mice
Toxic doses and inconclusive results are not listed.
Entries and their T/C values follow.

{"COMPOUND": "Cc1cc(N(CCOS(C)(=O)=O)CCOS(C)(=O)=O)ccc1C=Nc1ccc(C(=O)O)cc1", "TEST_SYSTEM": "L1210 leukemia ip in BDF1 mice, survival T/C", "T/C": "113 % of control"}
{"COMPOUND": "[Cl][Pt+2][Cl].[NH-]C1CCCC1.[NH-]C1CCCC1", "TEST_SYSTEM": "L1210 leukemia ip in BDF1 mice, survival T/C", "T/C": "121 % of control"}
{"COMPOUND": "Clc1ccc2c(c1)C1=NCCCN1c1cc(Cl)ccc1-2", "TEST_SYSTEM": "L1210 leukemia ip in BDF1 mice, survival T/C", "T/C": "91 % of control"}
{"COMPOUND": "CC[C@@]1(O)C(=O)OCc2c1cc1n(c2=O)Cc2cc3ccccc3nc2-1", "TEST_SYSTEM": "L1210 leukemia ip in BDF1 mice, survival T/C", "T/C": "117 % of control"}
